Source: ChEMBL document CHEMBL4184102

Collected Activity values appear next to each entry.
molecular target: SUMO-activating enzyme (Homo sapiens) (UniProt Q9UBE0+Q9UBT2); assay: Induction of SUMO-E1/E2 (unknown origin) mediated sumoylation of His-RanGap-1 after 30 mins by HTRF assay relative to control; assay type: protein-complex assay; parameters: concentration or dose not given beside the values

# compound, Activity / %
measured = [
    ("Cc1cc(C)c2nc(NNC(=O)c3cc(=O)c4ccccc4o3)sc2c1", 33),
    ("COc1cccc2sc(NNC(=O)C3COc4ccccc4O3)nc12 (stereo unspecified)", 17),
    ("O=S(=O)(Nc1cccc2cccnc12)c1ccccc1", 25),
    ("Cc1ccc(S(=O)(=O)Nc2cccc3cccnc23)cc1", 29),
    ("CC(=O)Nc1ccc(S(=O)(=O)Nc2cccc3cccnc23)cc1", 28),
    ("O=C(Nc1nc(-c2ccccn2)cs1)c1ccc(Br)s1", 37),
    ("Cc1ccc2sc(NNC(=O)c3cc(=O)c4ccccc4o3)nc2c1C", 38),
    ("O=S(=O)(Nc1cccc2cccnc12)c1ccc(S(=O)(=O)N2CCCC2)cc1", 43),
    ("O=C(Nc1nc(-c2ccccn2)cs1)c1ccc2c(c1)OCCO2", 20),
    ("O=C(Nc1nc(-c2ccccn2)cs1)C1COc2ccccc2O1 (stereo unspecified)", 53),
    ("O=C(Nc1nc(-c2ccccn2)cs1)c1ccc(Cl)s1", 25),
]
